Entry source: patent USRE38117E1

Quick list: Log10LC50 per entry.
# Test system: SK-MEL-2
# Test details: NCI 60 cell line screen (SRB), Melanoma
# Format: cell-based
# Condition summary: SK-MEL-2 (Melanoma)
Endpoint: Log10LC50

Molecule	Study system	Endpoint	Result
COC1OC2(C)CCC3CCCC(CCOC(=O)c4cccc(C(=O)OCCC5CCCC6CCC7(C)OOC56C(OC)O7)c4)C31OO2 (centres unmarked)	SK-MEL-2	Log10LC50	>−4.30 M
COC1OC2(C)CCC3CCCC(CCOC(=O)c4ccc(C(=O)OCCC5CCCC6CCC7(C)OOC56C(OC)O7)cc4)C31OO2 (centres unmarked)	SK-MEL-2	Log10LC50	>−4.00 M
COC1OC2(C)CCC3CCCC(CCOCCC4CCCC5CCC6(C)OOC45C(OC)O6)C31OO2 (centres unmarked)	SK-MEL-2	Log10LC50	>−4.00 M
CC(=O)O[C@H]1C(=O)[C@@]2(C)[C@H]([C@H](OC(=O)c3ccccc3)[C@]3(O)C[C@H](OC(=O)[C@H](O)[C@@H](NC(=O)c4ccccc4)c4ccccc4)C(C)=C1C3(C)C)[C@]1(OC(C)=O)CO[C@@H]1C[C@@H]2O [Paclitaxel, paclitaxel, reference compound]	SK-MEL-2	Log10LC50	>−4.00 M
C[C@@H]1CC[C@H]2[C@@H](C)C(=O)O[C@@H]3O[C@@]4(C)CC[C@@H]1[C@]32OO4 [QHS, reference compound]	SK-MEL-2	Log10LC50	>−4.00 M

###

# Tested on: LOX IMVI
# Test details: NCI 60 cell line screen (SRB), Melanoma
# Type: cell-based
Quick list: Log10GI50 per entry.

Molecule	Log10GI50, M
COC1OC2(C)CCC3CCCC(CCOC(=O)c4cccc(C(=O)OCCC5CCCC6CCC7(C)OOC56C(OC)O7)c4)C31OO2 (stereo not shown)	−6.27
COC1OC2(C)CCC3CCCC(CCOC(=O)c4ccc(C(=O)OCCC5CCCC6CCC7(C)OOC56C(OC)O7)cc4)C31OO2 (stereo not shown)	−6.28
COC1OC2(C)CCC3CCCC(CCOCCC4CCCC5CCC6(C)OOC45C(OC)O6)C31OO2 (stereo not shown)	−6.52
CC(=O)O[C@H]1C(=O)[C@@]2(C)[C@H]([C@H](OC(=O)c3ccccc3)[C@]3(O)C[C@H](OC(=O)[C@H](O)[C@@H](NC(=O)c4ccccc4)c4ccccc4)C(C)=C1C3(C)C)[C@]1(OC(C)=O)CO[C@@H]1C[C@@H]2O [Paclitaxel, paclitaxel, reference compound]	−11.80

###

# Tested on: EKVX
# Test details: NCI 60 cell line screen (SRB), Non-Small Cell Lung Cancer
# Assay type: cell-based
Endpoint: Log10TGI

Compound	Result
COC1OC2(C)CCC3CCCC(CCOCCC4CCCC5CCC6(C)OOC45C(OC)O6)C31OO2 (stereo not shown) [Compound 6, Trioxane Ether Dimer]	>−4.00 M
C[C@@H]1CC[C@H]2[C@@H](C)C(=O)O[C@@H]3O[C@@]4(C)CC[C@@H]1[C@]32OO4 [QHS, reference compound]	>−4.00 M
COC1OC2(C)CCC3CCCC(CCOC(=O)c4ccc(C(=O)OCCC5CCCC6CCC7(C)OOC56C(OC)O7)cc4)C31OO2 (stereo not shown) [Compound 11, Bis-ester Dimer]	>−4.00 M
COC1OC2(C)CCC3CCCC(CCOC(=O)c4cccc(C(=O)OCCC5CCCC6CCC7(C)OOC56C(OC)O7)c4)C31OO2 (stereo not shown) [Compound 10, Trioxane Bis-ester Dimer]	>−4.30 M

###

Quick list: Log10TGI per entry.
# Test system: HT29
# Test details: NCI 60 cell line screen (SRB), Colon Cancer
# Format: cell-based
Endpoint: Log10TGI

> print(dat)
                                   molecule  endpoint    result
1  C[C@@H]1CC[C@H]2[C@@H](C)C(=O)O[C@@H]3O[C@@]4(C)CC[C@@H]1[C@]32OO4 [QHS, reference compound]  Log10TGI  >−4.00 M
2  COC1OC2(C)CCC3CCCC(CCOC(=O)c4ccc(C(=O)OCCC5CCCC6CCC7(C)OOC56C(OC)O7)cc4)C31OO2 (stereo not shown)  Log10TGI  >−4.00 M
3  COC1OC2(C)CCC3CCCC(CCOC(=O)c4cccc(C(=O)OCCC5CCCC6CCC7(C)OOC56C(OC)O7)c4)C31OO2 (stereo not shown)  Log10TGI  >−4.30 M
4  COC1OC2(C)CCC3CCCC(CCOCCC4CCCC5CCC6(C)OOC45C(OC)O6)C31OO2 (stereo not shown)  Log10TGI  >−4.00 M

###

Quick list: Log10GI50 per entry.
# Tested on: OVCAR-5
# Test details: NCI 60 cell line screen (SRB), Ovarian Cancer
# Assay type: cell-based
# Condition summary: OVCAR-5 (Ovarian Cancer)
Endpoint: Log10GI50

Compound	Endpoint	Result
COC1OC2(C)CCC3CCCC(CCOC(=O)c4cccc(C(=O)OCCC5CCCC6CCC7(C)OOC56C(OC)O7)c4)C31OO2 (centres unmarked) [Compound 10, Trioxane Bis-ester Dimer]	Log10GI50	−5.68 M
C[C@@H]1CC[C@H]2[C@@H](C)C(=O)O[C@@H]3O[C@@]4(C)CC[C@@H]1[C@]32OO4 [QHS, reference compound]	Log10GI50	>−4.00 M
COC1OC2(C)CCC3CCCC(CCOCCC4CCCC5CCC6(C)OOC45C(OC)O6)C31OO2 (centres unmarked) [Compound 6, Trioxane Ether Dimer]	Log10GI50	−6.39 M
COC1OC2(C)CCC3CCCC(CCOC(=O)c4ccc(C(=O)OCCC5CCCC6CCC7(C)OOC56C(OC)O7)cc4)C31OO2 (centres unmarked) [Compound 11, Bis-ester Dimer]	Log10GI50	−5.45 M
CC(=O)O[C@H]1C(=O)[C@@]2(C)[C@H]([C@H](OC(=O)c3ccccc3)[C@]3(O)C[C@H](OC(=O)[C@H](O)[C@@H](NC(=O)c4ccccc4)c4ccccc4)C(C)=C1C3(C)C)[C@]1(OC(C)=O)CO[C@@H]1C[C@@H]2O [Paclitaxel, paclitaxel, reference compound]	Log10GI50	−9.38 M

###

# Test system: NCI-H322M
# Test details: NCI 60 cell line screen (SRB), Non-Small Cell Lung Cancer
# Type: cell-based

Compound	Log10LC50
COC1OC2(C)CCC3CCCC(CCOC(=O)c4ccc(C(=O)OCCC5CCCC6CCC7(C)OOC56C(OC)O7)cc4)C31OO2 (stereo not shown) [Compound 11, Bis-ester Dimer]	>−4.00 M
COC1OC2(C)CCC3CCCC(CCOCCC4CCCC5CCC6(C)OOC45C(OC)O6)C31OO2 (stereo not shown) [Compound 6, Trioxane Ether Dimer]	>−4.00 M
CC(=O)O[C@H]1C(=O)[C@@]2(C)[C@H]([C@H](OC(=O)c3ccccc3)[C@]3(O)C[C@H](OC(=O)[C@H](O)[C@@H](NC(=O)c4ccccc4)c4ccccc4)C(C)=C1C3(C)C)[C@]1(OC(C)=O)CO[C@@H]1C[C@@H]2O [Paclitaxel, paclitaxel, reference compound]	>−4.00 M
COC1OC2(C)CCC3CCCC(CCOC(=O)c4cccc(C(=O)OCCC5CCCC6CCC7(C)OOC56C(OC)O7)c4)C31OO2 (stereo not shown) [Compound 10, Trioxane Bis-ester Dimer]	>−4.30 M

###

# System: U251
# Test details: NCI 60 cell line screen (SRB), CNS Cancer
# Format: cell-based

Compound	Study system	Modifier	Log10GI50, M
COC1OC2(C)CCC3CCCC(CCOC(=O)c4cccc(C(=O)OCCC5CCCC6CCC7(C)OOC56C(OC)O7)c4)C31OO2 (centres unmarked) [Compound 10, Trioxane Bis-ester Dimer]	U251	=	−6.09
COC1OC2(C)CCC3CCCC(CCOCCC4CCCC5CCC6(C)OOC45C(OC)O6)C31OO2 (centres unmarked) [Compound 6, Trioxane Ether Dimer]	U251	=	−6.35
C[C@@H]1CC[C@H]2[C@@H](C)C(=O)O[C@@H]3O[C@@]4(C)CC[C@@H]1[C@]32OO4 [QHS, reference compound]	U251	>	−4.00
CC(=O)O[C@H]1C(=O)[C@@]2(C)[C@H]([C@H](OC(=O)c3ccccc3)[C@]3(O)C[C@H](OC(=O)[C@H](O)[C@@H](NC(=O)c4ccccc4)c4ccccc4)C(C)=C1C3(C)C)[C@]1(OC(C)=O)CO[C@@H]1C[C@@H]2O [Paclitaxel, paclitaxel, reference compound]	U251	=	−11.29
COC1OC2(C)CCC3CCCC(CCOC(=O)c4ccc(C(=O)OCCC5CCCC6CCC7(C)OOC56C(OC)O7)cc4)C31OO2 (centres unmarked) [Compound 11, Bis-ester Dimer]	U251	=	−6.02

###

# Tested on: A549/ATCC
# Test details: NCI 60 cell line screen (SRB), Non-Small Cell Lung Cancer
# Format: cell-based
Endpoint: Log10LC50

> print(dat)
                                   compound   endpoint    result
1  COC1OC2(C)CCC3CCCC(CCOC(=O)c4cccc(C(=O)OCCC5CCCC6CCC7(C)OOC56C(OC)O7)c4)C31OO2 (stereo not shown)  Log10LC50  >−4.30 M
2  C[C@@H]1CC[C@H]2[C@@H](C)C(=O)O[C@@H]3O[C@@]4(C)CC[C@@H]1[C@]32OO4 [QHS, reference compound]  Log10LC50  >−4.00 M
3  COC1OC2(C)CCC3CCCC(CCOCCC4CCCC5CCC6(C)OOC45C(OC)O6)C31OO2 (stereo not shown)  Log10LC50  >−4.00 M
4  COC1OC2(C)CCC3CCCC(CCOC(=O)c4ccc(C(=O)OCCC5CCCC6CCC7(C)OOC56C(OC)O7)cc4)C31OO2 (stereo not shown)  Log10LC50  >−4.00 M
